Data provenance: patent US6451801B1

Test system: 5-lipoxygenase
experimentalDetails: 5-Lipoxygenase inhibitory activity in vivo
conditionContext: guinea pig, oral, 2 mg/kg, 3 hours
Lab note: anything with % inhibition of 5-lipoxygenase at or over 60% counts as criterion met; the rest go in criterion not met.

- NC(=O)N(O)CCC#Cc1ccc(OCCCCN2CCN(C(c3ccc(F)cc3)c3ccc(F)cc3)CC2)cc1: criterion met
- NC(=O)N(O)CCC#Cc1ccc(CN2CCN(C(c3ccc(F)cc3)c3ccc(F)cc3)CC2)o1: criterion not met
- NC(=O)c1cc(C#CCCN(O)C(N)=O)ccc1OCCN1CCN([C@H](c2ccccc2)c2ccc(Cl)cc2)CC1: criterion met

Item `NC(=O)N(O)CCCCc1ccc(OCCN2CCN([C@H](c3ccccc3)c3ccc(Cl)cc3)CC2)cc1` with % inhibition of 5-lipoxygenase of 60% or above?
criterion met
